Target: NanoLuc luciferase MAGL fusion protein
Sequence (Q99685 whole entry, the tested form may be a part): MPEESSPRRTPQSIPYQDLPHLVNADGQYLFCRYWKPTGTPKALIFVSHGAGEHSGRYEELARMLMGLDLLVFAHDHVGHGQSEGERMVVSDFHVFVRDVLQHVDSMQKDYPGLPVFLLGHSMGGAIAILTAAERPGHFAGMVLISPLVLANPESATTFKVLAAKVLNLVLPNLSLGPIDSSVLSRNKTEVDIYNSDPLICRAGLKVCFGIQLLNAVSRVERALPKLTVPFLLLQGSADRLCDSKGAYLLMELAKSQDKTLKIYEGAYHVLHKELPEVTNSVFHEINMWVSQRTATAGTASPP
Assay: Cellular MAGL NanoBRET target engagement assay in live HEK293 cells
Conditions: SI Table 1, live HEK293 cells; read-out: NanoBRET IC50 ± SEM, HEK293
OBSERVABLE: IC50

Hey, quick one: what's IC50 for each of these?
1. O=C1NC2(CO1)CN(C(=O)N1CCC3(CC1)CC(OC1=C4C=CC=[N+]4[B-](F)(F)n4cccc41)C3)C2
2. O=C1CO[C@H]2CCN(C(=O)N3CC4(CC(CC5=C6C=CC(c7ccccc7)=[N+]6[B-](F)(F)n6cccc65)C4)C3)C[C@H]2N1
3. O=C1NC2(CO1)CN(C(=O)N1CC3(CC(=CC4=C5C=CC=[N+]5[B-](F)(F)n5cccc54)C3)C1)C2
4. O=C1CO[C@H]2CCN(C(=O)N3CCC4(CC3)CC(OC3=C5C=CC=[N+]5[B-](F)(F)n5cccc53)C4)C[C@H]2N1
5. Cc1ccc2oc(N3CCN(C(=O)N4CC5(CC(CC6=C7C=CC=[N+]7[B-](F)(F)n7cccc76)C5)C4)CC3)nc2n1

Solution:
["> 10 µM", "0.056 µM", "> 10 µM", "> 10 µM", "> 10 µM"]

Field IC50 (entry O=C1NC2(CO1)CN(C(=O)N1CC3(CC(CC4=C5C=CC=[N+]5[B-](F)(F)n5cccc54)C3)C1)C2 ) reads 5.54 µM
